- Test system: Rabbit Skeletal myofibrils (rabbit psoas muscle)
- protocol_summary: Myofibril ATPase assay (PK/LDH NADH-coupled), skeletal myofibrils
- Format: biochemical
- condition: Table 7
readout: Rabbit Psoas IC25 (µM)

[
  {
    "smiles_structure": "C[C@H](NC(=O)CN1Cc2c(ccnc2C#N)NC1=O)c1ncc(F)cc1F",
    "measured_target": "Rabbit Skeletal myofibrils (rabbit psoas muscle)",
    "scale_unit": "µM",
    "Rabbit Psoas IC25": 0.1508
  }
]

I. C[C@H](NC(=O)CN1C(=O)Nc2cccnc2C12CC2)c1ccc(F)cc1F
II. C[C@@H](NC(=O)CN1C(=O)Nc2cccnc2C12CC2)c1ncc(C#N)cc1F
III. C[C@H](NC(=O)CN1Cc2c(ccnc2Cl)NC1=O)c1ccc(F)cc1F
IV. C[C@H](NC(=O)[C@@H](C)N1Cc2nc(F)ccc2NC1=O)c1ccc(F)cc1F
V. O=C(CN1Cc2c(ccnc2C(F)(F)F)NC1=O)N[C@@H](CO)c1ncc(F)cc1F
Ask | Order by Rabbit Psoas IC25, ascending. A ranking is expressed here by listing the labels in the requested order.
Reply | III, IV, I, II, V

a. C[C@H](NC(=O)[C@H](C)N1Cc2nc(F)ccc2NC1=O)c1ccccc1F
b. N#Cc1cnc2c(c1)CC[C@@H]2NC(=O)CN1C(=O)Nc2cccnc2C12CC2
c. C[C@H](NC(=O)CN1C(=O)Nc2cccnc2[C@H]1C)c1ccc(F)cc1F
d. C[C@H](NC(=O)CN1Cc2c(ccnc2C#N)NC1=O)c1ccc(F)cc1F
Ask | Please give the order of these compounds when sorted by Rabbit Psoas IC25, largest value leading. # list labels per requested ordering
Reply | a, b, c, d
